# experimental system: human Orai1 (human, UniProt Q96D31 1-301)
# Sequence (Q96D31 whole entry): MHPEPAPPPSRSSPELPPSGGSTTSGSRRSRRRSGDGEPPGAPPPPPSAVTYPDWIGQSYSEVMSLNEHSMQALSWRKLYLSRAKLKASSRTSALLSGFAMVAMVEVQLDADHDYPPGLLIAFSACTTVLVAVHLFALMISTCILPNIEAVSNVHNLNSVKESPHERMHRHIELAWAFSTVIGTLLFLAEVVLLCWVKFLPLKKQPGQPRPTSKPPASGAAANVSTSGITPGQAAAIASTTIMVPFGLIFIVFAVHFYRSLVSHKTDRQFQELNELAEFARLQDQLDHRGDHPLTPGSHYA
# assay procedure: cell-based or functional assay
Items are presented alongside their recorded IC50, IFN-γ release from human PBMC treated with PMA and A23187.
readout name: IC50, IFN-γ release from human PBMC treated with PMA and A23187

binder	value measured
mouse anti-human Orai1 antibody 10F8 (antibody, mouse IgG1, kappa, V domains shown) VH: QVQLQQSGAELVRPGSSVKISCKASGYAFRSYWMNWVKQRPGQGLEWIGHIYPGDGDTNYNGKFKGKATLTADKSSSTAYMQLSSLTSEDSAVYLCGRGGTTVVVDYWGQGTTLTVSS VL: DIVMSQSPSSLAVSAGEKVTMSCKSSQSLLNSRTRKNYLAWYQQKPGQSPKLLIYWASTRESGVPDRFTGSGSGTDFTLTISSVQAEDLAVYYCKQSYNLPWTFGGGTKLEIKR	≥ 0.8 µg/mL
human anti-human Orai1 antibody 2C1.1 (antibody, human IgG2, lambda, V domains shown) VH: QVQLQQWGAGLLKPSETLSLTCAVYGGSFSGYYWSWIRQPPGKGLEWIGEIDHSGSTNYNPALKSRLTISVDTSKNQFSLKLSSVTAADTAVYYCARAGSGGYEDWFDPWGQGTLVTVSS VL: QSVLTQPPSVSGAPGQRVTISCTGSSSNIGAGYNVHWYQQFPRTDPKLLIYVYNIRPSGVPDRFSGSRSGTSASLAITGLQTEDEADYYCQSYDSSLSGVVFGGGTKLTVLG	≥ 0.8 µg/mL
mouse anti-human Orai1 antibody 17F6 (antibody, mouse IgG1, kappa, V domains shown) VH: QVQLQQSGAELVRPGSSVKISCKASGYAFSSYWMNWVKQRPGQGLEWIGHIYPGDADTNYNGKFKGKATLTADKSSSTAYMHLSSLTSEDSAVYFCSRQLGFRYAMDYWGQGTSVTVSS VL: DIVMSQSPSSLAVSAGEKVTMSCKSSQSLLNSRTRKNYLAWYQQKPGQSPKLLIYWASTRESGVPDRFTGSGSGTDFTLTISSVQAEDLAVYYCKQSYNLRTFGGGTKLEIKR	≥ 0.8 µg/mL
mouse anti-human Orai1 antibody 14F74 (antibody, mouse IgG1, kappa, V domains shown) VH: QVQLQQSGAELVRPGSSVKISCKASGYAFSSYWMNWVKQRPGQGLEWIGHIYPGDGDTNYNGKFKGKATLTADKSSSTAYMQLSGLTSEDSAVYFCARSGRLRFAMDYWGQGTSVTVSS VL: DIVMSQSPSSLAVSAGEKVTMSCKSSQSLLNSRTRKNYLAWYQQKPGQSPKLLIYWASTRESGVPDRFTGSGSGTDFTLTISSVQAEDLAVYYCKQSYNLRTFGGGTKLEIQR	≥ 0.8 µg/mL
human anti-human Orai1 antibody 5H3.1 (antibody, human IgG2, lambda, V domains shown) VH: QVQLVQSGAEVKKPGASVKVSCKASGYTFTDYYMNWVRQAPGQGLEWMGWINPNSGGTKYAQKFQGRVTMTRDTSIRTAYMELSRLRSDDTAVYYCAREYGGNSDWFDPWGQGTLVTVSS VL: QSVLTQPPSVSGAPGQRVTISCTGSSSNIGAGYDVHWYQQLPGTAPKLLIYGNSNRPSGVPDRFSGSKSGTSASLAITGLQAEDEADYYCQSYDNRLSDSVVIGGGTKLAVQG	≥ 0.8 µg/mL
